Documented cytotoxicity at 70.5 h across a set of compounds
test-method-notes: Human HepG2 cell viability assay in 384 well format
Type: toxicity, cell-based
Set-up: dose 125 nL, time 70.5 hour; concentration not given beside the values
experimental-context: HepG2 cells, read-out: Inhibition
readout-label: cytotoxicity at 70.5 h (%)

| compound | observed-measurement |
| --- | --- |
| CCn1cc(S(=O)(=O)N2CCC(C)Sc3ccccc32)cn1 (centres undefined) | -1.33 |
| Cc1nncn1CCNC(=O)C(C)(C)c1cccc(C(F)(F)F)c1 | -9.3 |
| CCc1n[nH]c(C2CN(CCCOc3cccc(C)c3)CCO2)n1 (centres undefined) | -3.37 |
| COc1c(C(=O)NCC2CCCO2)nnn1Cc1ccccc1 (centres undefined) | -3.19 |
| COCCNC(=O)C[C@@H]1COC[C@H]2CN(Cc3cccnc3)C[C@@H]12 | -0.897 |
| O=C(CN1CCCC(O)C1)NC(=O)NCc1cccs1 (centres undefined) | -8.04 |
| c1cncc(COCC2CC[C@H]3[C@H]2OCCN3Cc2ccoc2)c1 (some centres undefined) | 11.3 |
| CCn1nc(C)cc1C(=O)N1CCOc2ccc(OC)cc21 | -4.62 |
| CN1CC(c2ccccc2)C2(CCN(C(=O)c3cccn3C)CC2)C1=O (centres undefined) | 1.54 |
| CS(=O)(=O)c1nnc(NC(=O)CCc2cc(F)ccc2F)[nH]1 | -14.9 |
| CC(=O)c1ccc(N2CCCC(CO)(CCOc3ccccc3)C2)nc1 (centres undefined) | -13.1 |
| Cc1ccc2c(n1)N(Cc1csc(C)n1)CCN(C1CCOC1)C2 (centres undefined) | -5.88 |
| O=C(C1CCOCC1)N1C[C@H]2CNC[C@H]2C1 | -1.57 |
| CN(CCn1cnnc1)C(=O)c1ccnc(OC2CCC2)c1 | 16.2 |
| Cn1cc(NS(=O)(=O)CCOc2ccc(F)cc2)cn1 | -4.23 |
| Cc1nnc2n1CCN(Cc1ncc(-c3ccccc3)o1)C2 | -9.8 |
| CCn1nc2c(cc1=O)CN(c1ncnc3sccc13)CC2 | -11.4 |
| CCOC[C@@H]1CCC[C@@]12CN(Cc1nccs1)CCO2 | 0.476 |
| COCC1CN(Cc2c(C)noc2C)Cc2cn(C)nc21 (centres undefined) | 10.9 |
| Cc1nc(NCc2nccn2C)cc(C2COCCN2)n1 (centres undefined) | -11.1 |
| COc1ccc(CN(C)CC(=O)Nc2ccc3[nH]c(=O)[nH]c3c2)cc1F | -8.14 |
| Cc1ccncc1C(=O)N1C[C@@H]2CN(c3ncccn3)C[C@]2(C(=O)O)C1 | -5.72 |
| Cc1cc(C(=O)Nc2nnn[nH]2)ccc1I | -5.12 |
| COc1cccc(OC2CN(C(=O)Cn3nc4ccccc4n3)C2)c1 | -5.28 |

----------
test-method-notes: Human HepG2 cell viability assay in 384 well format
Format: toxicity, cell-based
Set-up: dose 125 nL, time 70.5 hour; concentration not given beside the values
experimental-context: HepG2 cells, read-out: Inhibition

| compound | uom | cytotoxicity at 70.5 h |
| --- | --- | --- |
| COc1ccc2cc(C(=O)N3CCCC3Cn3cc(C)cn3)[nH]c2c1 (stereo unspecified) | % | 2.37 |
| COCC(=O)Nc1ccc(-c2noc([C@@H]3CCCN3C)n2)cn1 | % | -7.79 |
| Fc1ccc(-c2c[nH]c([C@@H]3COCCN3)n2)cc1 | % | -9.31 |
| CN(C)CC1CN(C(=O)CCc2ccccc2)Cc2nccn2C1 (stereo unspecified) | % | 1.84 |
| C[S+]([O-])c1nncn1CC(=O)c1ccc(Br)cc1 (stereo unspecified) | % | -5.18 |
| Cc1ccc(C(=O)NC2CCN(Cc3noc(C(C)C)n3)CC2)s1 | % | -8.2 |
| CN(C)CCCNC(=O)c1cnc(Cc2ccc(F)cc2)s1 | % | -6.21 |
| Cc1cc(C#N)ccc1S(=O)(=O)N1CCN(C)Cc2ccccc21 | % | -0.39 |
| Cn1ncc(N2CCC(CNC3CC(C)(C)CC(C)(C)C3)C2)cc1=O (stereo unspecified) | % | 7.5 |
| O=C(c1cc(Cl)cc(Cl)c1)N1CCN(c2nccs2)CC1 | % | -1.02 |
| Cc1ccc(NC2CCN(C(=O)COc3ccccc3)CC2)nn1 | % | -15.7 |

----------
test-method-notes: Human HepG2 cell viability assay in 384 well format
Type: toxicity, cell-based
Set-up: dose 125 nL, time 70.5 hour; concentration not given beside the values
experimental-context: HepG2 cells, read-out: Inhibition
Documented cytotoxicity at 70.5 h across a set of compounds

| compound | cytotoxicity at 70.5 h, % |
| --- | --- |
| COCCNC(=O)CN1CCC(N2CCN(C)C2=O)CC1 | -13.2 |
| CC(C)(C(=O)NCCS(N)(=O)=O)c1cccc(Br)c1 | -6.85 |
| CCCc1cc(CNC2CCN(c3cc(C)nc(N)n3)CC2)on1 | -5.61 |
| Cc1nc(-n2nc(C3CC3)cc2NC(=O)C(C)C)[nH]c(=O)c1C | 40.2 |
| CNC(=O)CCN(C)c1nc(-c2ccncc2)nc2c1CCNC2 | -13.1 |
| CCSc1ccc(NC(=O)NC(C)c2ccncc2)cn1 (stereo not given) | -5.74 |
| COCCN1CCC2(C1)c1ccccc1S(=O)(=O)N2C (stereo not given) | -10.1 |
| NC(=O)CN1CCCCC1c1nc(N)ncc1-c1cccc(F)c1 (stereo not given) | -4.69 |
| CN(Cc1nc2c(cnn2C)c(=O)[nH]1)Cc1ccco1 | 7.12 |
| COCCN(C)C(C(=O)O)c1ccc(C)c(C)c1 (stereo not given) | 0.276 |
| Cc1nnc(C(C)N2CCc3[nH]c4ccccc4c3C2)o1 (stereo not given) | -4.16 |
| O=C(Cc1nc(-c2ccncc2)n[nH]1)N1CCOCC1 | -14.8 |
| CCn1ccnc1CN(C)c1cc(C2CC2)ncn1 | -5.12 |
| O[C@H]1Cc2ccccc2[C@H]1n1ccnc1-c1cc2n(n1)CCNC2 | -2.39 |
| O=C(c1ccccc1C(F)(F)F)N1C[C@@H](CN2CCOCC2)[C@@H](CO)C1 | -6.68 |
| CCN(Cc1cc(-c2ccccn2)no1)C1CCS(=O)(=O)C1 (stereo not given) | -9.24 |
| COc1ccc(C)c(NC(=O)NCc2ncnn2C)c1 | 3.43 |
| Cc1ccc(Oc2ncccc2CNS(=O)(=O)N2CCOCC2)cn1 | -4.6 |
| O=C(CN1CCC2(CC1)NC(=O)c1cc(Br)ccc1N2)NC1CC1 | -1.52 |
| CCOCCCn1c(NC(=O)c2ccc(C)nc2)nc2ccccc21 | -5.03 |
| CC(O)CN1CCN(Cc2coc(-c3ccccc3)n2)CC1 (stereo not given) | -7.79 |
| CN(C)C(=O)c1cccnc1SCc1ccccc1Cl | 1.28 |
| COCCN1CC(C(=O)NCc2ccnc(-n3cccn3)c2)CC1=O (stereo not given) | -6.88 |
| O=C(NC1CCN(c2snc3ccccc23)CC1)C1CCC1 | 14.4 |
| CCn1nc(C)c2nc(C)nc(NCCCn3cccn3)c21 | -7.44 |

----------
test-method-notes: Human HepG2 cell viability assay in 384 well format
Assay type: toxicity, cell-based
Design: dose 125 nL, time 70.5 hour; concentration not given beside the values
experimental-context: HepG2 cells, read-out: Inhibition
readout-label: cytotoxicity at 70.5 h (%)

| compound | readout-label | uom | observed-measurement |
| --- | --- | --- | --- |
| COc1c(C)cnc(CSc2nnc(N)s2)c1C | cytotoxicity at 70.5 h | % | -3.12 |
| c1ccc(-n2cc(CN3CCCC3Cn3cncn3)nn2)cc1 (stereo unspecified) | cytotoxicity at 70.5 h | % | -1.22 |
| CS(=O)(=O)N1CCN(CC(O)COc2ccc(Cl)cc2)CC1 (stereo unspecified) | cytotoxicity at 70.5 h | % | 0.0303 |
| CCc1ccc2nc(C)cc(C(=O)NC3CCCCNC3=O)c2c1 (stereo unspecified) | cytotoxicity at 70.5 h | % | 1.7 |
| Cc1cnc(CCN(C)C(=O)c2cccc(N(C)C)c2)s1 | cytotoxicity at 70.5 h | % | 60.6 |
| COc1ccc(C)cc1CN1CCOC(Cn2nc(C)nc2C)C1 (stereo unspecified) | cytotoxicity at 70.5 h | % | -19.6 |

----------
Documented cytotoxicity at 70.5 h across a set of compounds
test-method-notes: Human HepG2 cell viability assay in 384 well format
Type: toxicity, cell-based
Parameters: dose 125 nL, time 70.5 hour; concentration not given beside the values
experimental-context: HepG2 cells, read-out: Inhibition

| compound | uom | cytotoxicity at 70.5 h |
| --- | --- | --- |
| COCC1CC2(CCN(Cc3ccoc3)CC2)CN1C(C)C (centres undefined) | % | -9.47 |
| N[C@H]1CN(C(=O)Cc2ccc(Cl)c(Cl)c2)C[C@@H]1C1CC1 | % | 13.6 |
| Cc1noc(C2CCN(C(=O)c3cc(Cl)c(Cl)n3C)CC2)n1 | % | -2.97 |
| CC(=O)N1CC(=O)N(c2ccsc2)CC12CCN(Cc1ccccn1)C2 (centres undefined) | % | -6.8 |
| Clc1ccc(C2(CNC3=NCCN3)CC2)cc1 | % | 10 |
| CC(=O)NCCC(=O)NCC1(c2c(F)cccc2F)CCCC1 | % | -3.9 |
| CN(C)C(=O)N1C[C@@H]2CC[C@H](C1)N(Cc1ccc3nsnc3c1)C2 | % | -5.73 |
| CCC(C)Oc1cc(C(=O)Nc2nc(C)ns2)ccn1 (centres undefined) | % | -0.392 |
| CCN(C)S(=O)(=O)N(Cc1cscn1)c1ccccc1 | % | -7.14 |
| CSc1ncc(C(=O)NCCn2nccc2C)cn1 | % | -2.28 |
| Cc1ncsc1CN1CCOC(C)(C(=O)N2CCOCC2)C1 (centres undefined) | % | -2.94 |
| O=C(c1ccccc1F)N1CCN(c2ccc(-n3cccn3)nn2)CC1 | % | 0.31 |
| CN(C)c1ncc(NS(=O)(=O)c2ccc(OC(F)(F)F)cc2)cn1 | % | 3.34 |
| COc1cccc(COCC(=O)N2CCN(S(C)(=O)=O)CC2)c1 | % | -4.61 |
| COc1ccc(C(=O)N2CC(=O)N(CC3CC3)CC(O)C2)cc1 (centres undefined) | % | -4 |
| Cc1[nH]ncc1C(=O)NCC(CO)Cc1ccc(Cl)cc1 (centres undefined) | % | -5.24 |
| COCCNc1c(-c2ccc(Cl)cc2)c(=O)c1=O | % | -7.26 |
| COc1ccc(-c2ccnc3c2C(=O)CCC3)cc1 | % | 25.7 |
| CN(C)C(=O)C1CCC2(CCN(C(=O)Nc3ccccc3)CC2)O1 (centres undefined) | % | -8 |
| CCCN1CCN(C(=O)c2cnccn2)[C@H]2CS(=O)(=O)C[C@H]21 | % | -0.654 |
| O=C(CN1CCOC(Cn2cccn2)C1)NCc1ccccn1 (centres undefined) | % | -9.46 |
| CCCc1ccc(S(=O)(=O)Nc2ccc(=O)n(C)c2)cc1 | % | 22.8 |
| Cc1nnc([C@@H]2CC[C@@H]3[C@@H](CCN3Cc3ccccn3)O2)o1 | % | 10.5 |
| CC(C)c1nc2c(n1C)CCN(CC(=O)Nc1nccs1)C2 | % | -24.8 |
